assay: High Content Assay for Compounds that inhibit the Assembly of the Perinucleolar Compartment; details: PC3M PTB-GFP, PNC prevalence imaging, 16 h; at 10 µM;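 also: plate controls were DMSO wells for no effect and camptothecin positive control wells for full effect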
Hit rate of the full screen: of about 140,000 compounds, about 4,300 (3.1%) were called active. Not shown: some 21% with an inconclusive outcome.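 The calls were made as follows: active = readout at or below -70, meaning at least 70% loss of cells showing the perinucleolar compartment, a nuclear body marking cancer cells; inconclusive = readout between -30 and a set limit; inactive = the rest.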 This is one part of a sample in which actives are shown more often than they occur.
Outcome codes: t = active, f = inactive

1. CN1CCC(=NNC(=O)c2ccc(N(Cc3ccc(Cl)cc3)S(C)(=O)=O)cc2)CC1    f
2. COc1ccc(NC(=O)CN2CCN(S(=O)(=O)c3ccc(F)cc3)CC2)cc1Cl    t
3. C/C(CC(=O)Nc1ccc(Cl)cc1)=N\NC(=O)C(=O)NCCO    t
4. O=C(Nc1nc2ccccc2s1)c1ccc2c(c1)OCO2    f
5. COc1ccc(/C(N)=N/OC(=O)CCCc2ccccc2)cc1    f
6. O=CN1CCN(C2CC(=O)N(c3ccc4c(c3)OCO4)C2=O)CC1 (configuration not stated)    f
7. COCC(=O)Nc1nnc(COc2ccccc2)s1    f
8. COc1ccc2nc(NC(=O)[C@@H]3CCCN3C(=O)c3cccs3)sc2c1    f
9. COc1ccccc1NC(=O)C1=C(C)Nc2ncnn2C1c1ccc(C)o1 (configuration not stated)    f
10. COc1cc(OC)cc(C(=O)NCC(=O)OCc2csc(-c3ccccc3)n2)c1    f
11. COc1ccccc1N1CCN(C(=O)C(=O)N/N=C/c2ccccc2F)CC1    t
12. CC(C)(C)NC(=O)Cn1nnc(-c2ccccc2Cl)n1    f
13. CC(CNc1ccc([N+](=O)[O-])cc1)NC(=O)c1ccccc1Br (configuration not stated)    f
14. CC(=O)c1ccc(Oc2cc(C)nc(-n3nc(C)cc3C)n2)cc1    t
15. C/C(=N/NS(=O)(=O)c1ccccc1)c1ccc(NC(=O)C(F)(F)F)cc1    f
16. O=C(Nc1nc(-c2ccc3c(c2)OCO3)cs1)c1ccncc1    t
17. CCOC(=O)C1=C(C)NC(=O)NC1c1ccccc1 (configuration not stated)    f
18. Cc1cc(C)nc(NC(=O)c2cccc([N+](=O)[O-])c2)c1    f
19. COCCOC(=O)C1=C(C)N=c2s/c(=C\c3cccs3)c(=O)n2C1c1cccs1 (configuration not stated)    t
20. COc1ccc(OCC(=O)Nc2nnc(-c3ccco3)s2)cc1    t
21. CS(=O)(=O)Nc1ccc(C(=O)N2CCCC2)cc1    f
22. COc1ccccc1N1CCN(C(=O)c2ccc(S(=O)(=O)N3CCCCC3)cc2)CC1    f

###

assay: High Content Assay for Compounds that inhibit the Assembly of the Perinucleolar Compartment; conditions: PC3M PTB-GFP, PNC prevalence imaging, 16 h; at 10 µM;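 also: plate controls were DMSO wells for no effect and camptothecin positive control wells for full effect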
The whole screen tested about 140,000 compounds, of which about 4,300 (3.1%) were called active. About 21% were inconclusive and are not listed.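 Rule for the calls: active = readout at or below -70, meaning at least 70% loss of cells showing the perinucleolar compartment, a nuclear body marking cancer cells; inconclusive = readout between -30 and a set limit; inactive = the rest.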 What follows is part of a selection rich in actives, with near analogues and random picks from the rest.
Outcome codes: true (1) for active, false (0) for inactive

1. COc1ccc(C(=O)O/N=C(\N)Cc2ccc(Cl)cc2Cl)cc1OC    false (0)
2. CCOC(=O)C1=C(CC)Nc2ccccc2N=C1NC(=O)c1cccc(S(=O)(=O)N2CCCC2)c1    true (1)
3. O=C(Nc1nncs1)c1cccc(S(=O)(=O)N2CCCCC2)c1    false (0)
4. COC(=O)c1ccc(NC(=O)CSc2nnc(-c3ccncc3)n2C)cc1    false (0)
5. Cc1ccc(C2=NN(C(=O)CSc3nc(N)cc(N)n3)C(c3ccco3)C2)cc1 (configuration not stated)    true (1)
6. O=C(CSc1nc(-c2ccco2)cc(C(F)(F)F)n1)N1CCc2ccccc2C1    true (1)
7. COc1ccc(CCNC(=O)CCCCn2c(=O)[nH]c3ccccc3c2=O)cc1OC    false (0)
8. Cc1ccc(S(=O)(=O)NC(C)C(=O)Nc2ccccc2C(=O)N2CCCC2)cc1 (configuration not stated)    false (0)
9. COc1ccc(CNC(=O)CCCn2nc(C)c([N+](=O)[O-])c2C)cc1    false (0)
10. Cc1cccc(N2C(=O)SC(SC(=Nc3ccccc3)Nc3ccccc3)C2=O)c1 (configuration not stated)    false (0)
11. Cc1cc(C)c(C#N)c(SCC(=O)NN2CC(=O)N(c3ccccc3F)CC2=O)n1    false (0)
12. CCOC(=O)c1ccc(NC(=O)CSc2nnc(COc3ccccc3OC)n2C)cc1    true (1)
13. CS(=O)(=O)c1sc2nc(-c3ccccc3)cc(-c3ccccc3)c2c1N    false (0)
14. CCCCc1cc2c(s1)CCCC/C2=N/O    false (0)
15. CCOC(=O)CSc1nnc(NC(=O)c2cccc(S(=O)(=O)N3CCCCC3)c2)s1    false (0)
16. CCOC(=O)c1ccc(NC(=O)CSc2ncccn2)cc1    false (0)
17. COc1ccc(/C=N/Nc2nc3ccccc3c(=O)[nH]2)cc1    false (0)
